Assign Kd to each entry below.
target: T1, human programmed cell death protein 1 (hPD-1) C93S (aa 24-167) (Homo sapiens, UniProt Q15116, C93S); assay: SPR; Carterra LSA; Fab from the ammonium sulfate precipitate of the culture supernatant immobilised on a NiHC200M chip; hPD-1 (1-1024 nM) or mPD-1-Fc (4-1024 nM) as analyte, fourfold dilution series, no regeneration; HBS-EP pH 7.4, 25 °C; medians over the spots of a construct, KD = koff/kon; conditions: one partner purified
T1 construct: made as a fusion with a TEV site and human Fc; the Fc was cut off with TEV protease; source: Expi293F, purified (Protein A, TEV cleavage of Fc, SEC; monomer fractions); not shown: Fc (human), C-terminal, cleaved
T1 sequence (Q15116 24-167 C93S): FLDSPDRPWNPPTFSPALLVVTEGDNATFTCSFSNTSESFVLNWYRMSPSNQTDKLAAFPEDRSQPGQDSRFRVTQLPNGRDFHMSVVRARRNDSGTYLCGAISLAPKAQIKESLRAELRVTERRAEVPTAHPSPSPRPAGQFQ

Task: # input binder: toripalimab Fab L.V99L (Fab, V domains shown, as the heavy chain of Sm3; light chain of Sm3 with this change; numbers count from the chain's first residue; source: Brevibacillus, culture supernatant (ammonium sulfate precipitate); not shown: 6xHis, C-terminal, kept; 6xHN, C-terminal, kept) VH: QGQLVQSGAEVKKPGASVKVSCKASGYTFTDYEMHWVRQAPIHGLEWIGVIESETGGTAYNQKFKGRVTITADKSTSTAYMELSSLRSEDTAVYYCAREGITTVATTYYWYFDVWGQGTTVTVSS VL: DVVMTQSPLSLPVTLGQPASISCRSSQSIVHSNGNTYLEWYLQKPGQSPQLLIYKVSNRFSGVPDRFSGSGSGTDFTLKISRVEAEDVGVYYCFQGSHLPLTFGQGTKLEIK ; wanted: its Kd
Output: < 1.43 nM

Task: # input binder: toripalimab Fab, wild type (Fab, V domains shown, toripalimab Fab heavy chain; toripalimab stands in PDB 6JBT; toripalimab Fab light chain; also called WT; source: Brevibacillus, culture supernatant (ammonium sulfate precipitate); not shown: 6xHis, C-terminal, kept; 6xHN, C-terminal, kept) VH: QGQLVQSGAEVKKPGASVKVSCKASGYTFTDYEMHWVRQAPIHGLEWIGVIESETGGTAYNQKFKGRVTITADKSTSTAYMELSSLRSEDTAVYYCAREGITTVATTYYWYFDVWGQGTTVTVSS VL: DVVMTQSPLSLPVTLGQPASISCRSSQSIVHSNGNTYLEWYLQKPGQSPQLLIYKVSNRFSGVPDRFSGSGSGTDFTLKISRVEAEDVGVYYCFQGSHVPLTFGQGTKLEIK ; wanted: its Kd
Output: < 0.841 nM

Task: # input binder: toripalimab Fab H.D113Y (Fab, V domains shown, heavy chain of Sm3 with this change; numbers count from the chain's first residue; as the light chain of Sm3; source: Brevibacillus, culture supernatant (ammonium sulfate precipitate); not shown: 6xHis, C-terminal, kept; 6xHN, C-terminal, kept) VH: QGQLVQSGAEVKKPGASVKVSCKASGYTFTDYEMHWVRQAPIHGLEWIGVIESETGGTAYNQKFKGRVTITADKSTSTAYMELSSLRSEDTAVYYCAREGITTVATTYYWYFYVWGQGTTVTVSS VL: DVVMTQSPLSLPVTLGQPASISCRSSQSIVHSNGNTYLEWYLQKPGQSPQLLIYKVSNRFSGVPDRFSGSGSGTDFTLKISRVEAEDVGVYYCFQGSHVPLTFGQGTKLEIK ; wanted: its Kd
Output: < 1.6 nM

Task: # input binder: toripalimab Fab H.T55A (Fab, V domains shown, heavy chain of Sm3 with this change; numbers count from the chain's first residue; as the light chain of Sm3; source: Brevibacillus, culture supernatant (ammonium sulfate precipitate); not shown: 6xHis, C-terminal, kept; 6xHN, C-terminal, kept) VH: QGQLVQSGAEVKKPGASVKVSCKASGYTFTDYEMHWVRQAPIHGLEWIGVIESEAGGTAYNQKFKGRVTITADKSTSTAYMELSSLRSEDTAVYYCAREGITTVATTYYWYFDVWGQGTTVTVSS VL: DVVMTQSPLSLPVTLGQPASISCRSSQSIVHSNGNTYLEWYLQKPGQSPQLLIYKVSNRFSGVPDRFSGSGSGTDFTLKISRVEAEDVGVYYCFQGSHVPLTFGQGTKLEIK ; wanted: its Kd
Output: 5.76 nM

Task: # input binder: toripalimab Fab L.L101H (Fab, V domains shown, as the heavy chain of Sm3; light chain of Sm3 with this change; numbers count from the chain's first residue; source: Brevibacillus, culture supernatant (ammonium sulfate precipitate); not shown: 6xHis, C-terminal, kept; 6xHN, C-terminal, kept) VH: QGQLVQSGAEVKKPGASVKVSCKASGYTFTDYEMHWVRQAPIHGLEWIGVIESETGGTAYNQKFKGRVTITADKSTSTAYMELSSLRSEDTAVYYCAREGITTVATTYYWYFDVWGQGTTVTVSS VL: DVVMTQSPLSLPVTLGQPASISCRSSQSIVHSNGNTYLEWYLQKPGQSPQLLIYKVSNRFSGVPDRFSGSGSGTDFTLKISRVEAEDVGVYYCFQGSHVPHTFGQGTKLEIK ; wanted: its Kd
Output: 60.6 nM

Source: paper PMC10663500
